Target: R172K IDH2 (Homo sapiens, UniProt P48735, R172K)
Construct: made in house; host or cells: Sf21 insect cells (cell pellets prepared at Evotec)
Sequence (P48735 40-452 R172K): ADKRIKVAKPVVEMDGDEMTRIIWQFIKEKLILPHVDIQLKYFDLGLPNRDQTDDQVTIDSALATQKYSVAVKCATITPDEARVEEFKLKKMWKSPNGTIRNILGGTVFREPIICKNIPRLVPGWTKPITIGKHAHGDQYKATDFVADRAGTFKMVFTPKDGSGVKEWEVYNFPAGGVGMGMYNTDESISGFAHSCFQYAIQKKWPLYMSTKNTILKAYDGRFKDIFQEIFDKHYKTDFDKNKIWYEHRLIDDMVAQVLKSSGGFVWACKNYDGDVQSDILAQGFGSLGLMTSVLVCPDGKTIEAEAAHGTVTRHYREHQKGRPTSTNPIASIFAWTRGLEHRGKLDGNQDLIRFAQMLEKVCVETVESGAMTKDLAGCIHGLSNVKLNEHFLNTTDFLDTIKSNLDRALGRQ
Assay: Absorbance assay, variant activity in the presence of equimolar 2OG (inhibition screen)
Type: biochemical
Details: 1.0 mM 2OG and 1.0 mM test compound, 0.03 μM R172K IDH2, 50 μM NADPH
Method: Compounds were dispensed using a CyBio SDW-CW CyBi-Well Simultaneous Pipettor and assay started using a ThermoFisher Multidrop Combi reagent dispenser. Reactions were performed as technical quadruplicates.
activity [%] (%-substrate conversion after 20 min incubation) overview
The reply should contain only the number, in %.

Below: 5 compounds and their reported activity [%] (%-substrate conversion after 20 min incubation).
| COMPOUND | VALUE_OBSERVED |
| --- | --- |
| O=C(O)CCC(=O)C(=O)O [2OG, 2-oxoglutarate, reference compound] | 100 |
| NC(CCC(=O)O)C(=O)O (racemic) | 93 |
| N[C@@H](CCCC(=O)O)C(=O)O | 104 |
| CC(C)CC(=O)C(=O)O | 104 |
| CCCC(CC(=O)C(=O)O)C(=O)O (racemic) | 97 |

Using R172K IDH2 (Homo sapiens, UniProt P48735, R172K) as the test system, report measured activity [%] (%-substrate conversion after 20 min incubation) of `O=C[C@H](O)[C@@H](O)[C@H](O)[C@H](O)C(=O)O` .
101
